Measured values drawn from paper PMC3626250 for this set.

- test: Tissue distribution study in rabbits after oral Panax notoginseng extract with or without Borneol
- Format: in vivo, New Zealand rabbits
- assay_setup: New Zealand, rabbit, heart, po, 3 mL·kg^−1, 0.5 h, oral Panax notoginseng, read-out: Concentration in heart
# concentration at 0.5 h values compiled below

compound	concentration at 0.5 h [ng/g]
CC(C)=CCC[C@](C)(O[C@@H]1O[C@H](CO)[C@@H](O)[C@H](O)[C@H]1O)[C@H]1CC[C@]2(C)[C@@H]1[C@H](O)C[C@@H]1[C@@]3(C)CC[C@H](O)C(C)(C)[C@@H]3[C@@H](O[C@@H]3O[C@H](CO)[C@@H](O)[C@H](O)[C@H]3O)C[C@]12C [GRg1, ginsenoside Rg1]	2210
CC(C)=CCC[C@](C)(O[C@@H]1O[C@H](CO)[C@@H](O)[C@H](O)[C@H]1O)[C@H]1CC[C@]2(C)[C@@H]1[C@H](O)C[C@@H]1[C@@]3(C)CC[C@H](O)C(C)(C)[C@@H]3[C@@H](O[C@@H]3O[C@H](CO)[C@@H](O)[C@H](O)[C@H]3O[C@@H]3O[C@@H](C)[C@H](O)[C@@H](O)[C@H]3O)C[C@]12C [GRe, ginsenoside Re]	1650

* * *

- test: Pharmacokinetics study in rabbits after oral Panax notoginseng extract with or without Borneol (plasma, SPE-HPLC-MS)
- Format: in vivo, New Zealand rabbits
- assay_setup: New Zealand, rabbit, plasma, oral 3.0 mL·kg^−1 Panax notoginseng extract
Items are presented alongside their recorded Tmax.
result_type: Tmax (min)

molecule	obs_value
CC(C)=CCC[C@](C)(O[C@@H]1O[C@H](CO)[C@@H](O)[C@H](O)[C@H]1O)[C@H]1CC[C@]2(C)[C@@H]1[C@H](O)C[C@@H]1[C@@]3(C)CC[C@H](O)C(C)(C)[C@@H]3[C@@H](O[C@@H]3O[C@H](CO)[C@@H](O)[C@H](O)[C@H]3O[C@@H]3O[C@@H](C)[C@H](O)[C@@H](O)[C@H]3O)C[C@]12C [GRe, ginsenoside Re]	45
CC(C)=CCC[C@](C)(O[C@@H]1O[C@H](CO)[C@@H](O)[C@H](O)[C@H]1O)[C@H]1CC[C@]2(C)[C@@H]1[C@H](O)C[C@@H]1[C@@]3(C)CC[C@H](O)C(C)(C)[C@@H]3[C@@H](O[C@@H]3O[C@H](CO)[C@@H](O)[C@H](O)[C@H]3O)C[C@]12C [GRg1, ginsenoside Rg1]	30

* * *

- test: Tissue distribution study in rabbits after oral Panax notoginseng extract with or without Borneol
- Assay type: in vivo, New Zealand rabbits
- assay_setup: New Zealand, rabbit, brain, po, 3 mL·kg^−1, 3.0 h, oral Panax notoginseng with Borneol, read-out: Concentration in brain
- Description: Frozen plasma and tissue samples were thawed in a water bath at 37°C and were then vortexed followed by centrifuging at 5000 r·min^−1 for 5 min. An aliquot of 1.0 mL of the supernatant from each sample was loaded onto C18 Bond Elute Solid phase extraction (SPE) cartridges (1000 mg, 1 cc reservoir, Varian, Harbor City, CA, USA) pretreated with 2.0 mL hexane, isopropanol, methanol, and water, sequentially. […]
# concentration at 3 h listing for each entry below

compound	concentration at 3 h [ng/g]
CC(C)=CCC[C@](C)(O[C@@H]1O[C@H](CO)[C@@H](O)[C@H](O)[C@H]1O)[C@H]1CC[C@]2(C)[C@@H]1[C@H](O)C[C@@H]1[C@@]3(C)CC[C@H](O)C(C)(C)[C@@H]3[C@@H](O[C@@H]3O[C@H](CO)[C@@H](O)[C@H](O)[C@H]3O)C[C@]12C [GRg1, ginsenoside Rg1]	17900
CC(C)=CCC[C@](C)(O[C@@H]1O[C@H](CO)[C@@H](O)[C@H](O)[C@H]1O)[C@H]1CC[C@]2(C)[C@@H]1[C@H](O)C[C@@H]1[C@@]3(C)CC[C@H](O)C(C)(C)[C@@H]3[C@@H](O[C@@H]3O[C@H](CO)[C@@H](O)[C@H](O)[C@H]3O[C@@H]3O[C@@H](C)[C@H](O)[C@@H](O)[C@H]3O)C[C@]12C [GRe, ginsenoside Re]	1650
